Every entry's value here was drawn from patent US10508077B2.

assayed.system: Full length human recombinant HDAC8 protein (Homo sapiens, UniProt Q9BY41)
Construct: Full length human recombinant HDAC8 protein was expressed in baculoviral system
Sequence (Q9BY41 whole entry): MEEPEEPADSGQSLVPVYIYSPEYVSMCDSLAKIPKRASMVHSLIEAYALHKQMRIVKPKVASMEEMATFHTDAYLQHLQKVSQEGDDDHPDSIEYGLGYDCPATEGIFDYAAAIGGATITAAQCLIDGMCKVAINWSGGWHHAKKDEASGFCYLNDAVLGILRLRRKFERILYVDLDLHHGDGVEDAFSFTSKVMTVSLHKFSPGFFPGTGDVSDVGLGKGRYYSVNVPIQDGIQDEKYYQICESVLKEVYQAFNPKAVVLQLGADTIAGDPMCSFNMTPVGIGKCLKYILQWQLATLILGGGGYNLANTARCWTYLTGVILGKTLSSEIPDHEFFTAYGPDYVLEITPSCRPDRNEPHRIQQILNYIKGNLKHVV
test.method.notes: In vitro histone deacetylase assay: enzymatic HDAC8 assay, electrophoretic mobility shift
conditions.used: substrate RHKK(Ac)-NH2, 1 nM enzyme, compounds listed under IC50 range headings
// reported IC50 for each item listed
endpoint.name: IC50

| compound | recorded.measurement |
| --- | --- |
| Cc1cc(C)n(Cc2ccc(C(=O)Nc3ccccc3/C=C/C(=O)NO)cc2)n1 | < 1000 nM |
| O=C(/C=C/c1ccccc1NC(=O)c1cnn(-c2ccc(Cl)cc2)c1C(F)(F)F)NO | < 1000 nM |
| CCCCC(=O)NC1CCN(c2ccccc2/C=C/C(=O)NO)CC1 | < 1000 nM |
| O=C(/C=C/c1ccccc1NCc1ccc2nccn2c1)NO | < 1000 nM |
| Cc1ccccc1C(C(=O)Nc1ccccc1/C=C/C(=O)NO)C(C)C (stereo not drawn) | < 1000 nM |
| O=C(/C=C/c1ccccc1N1CC[C@@H](c2ccccc2)C1=O)NO (single isomer, unassigned) | < 1000 nM |
| O=C(/C=C/c1ccccc1N1CCC(NC(=O)CC2CC2)CC1)NO | < 1000 nM |
| CN1CCN(c2ccccc2/C=C/C(=O)NO)CC1 | < 1000 nM |
| COc1cc(CC(=O)NC2CCN(c3ccccc3/C=C/C(=O)NO)CC2)ccc1O | < 1000 nM |
